# IC50 listing for each entry below
System: U-87
ASSAY PROTOCOL: SRB cytotoxicity assay, U-87 (2nd panel)
Format: cell-based, human
CONDITION PARAMETERS: Homo sapiens, U-87 MG; ± SD; SRB, 72 h
Protocol: U-87MG cells (glioblastoma cell line) were cultured in Eagle’s Minimal Essential Medium. Human Dermal Fibroblasts cell line (HDF) was cultured in Fibroblast Basal Medium. Each medium was supplemented with 10% fetal bovine serum, 1% L-glutamine, and 1% penicillin/streptomycin solution. […] The optimal plating density of cell lines was determined to be 5 × 104. […] acetic acid and then air dried overnight. […] Cell survival was measured as the percentage absorbance compared to the control (nontreated cells). […]

- COMPOUND: "CO[C@H]1/C=C\\C=C(/C)C(=O)NC2=CC(=O)C(NC3C[N+]4(Cc5ccsc5Br)CCC3CC4)=C(C[C@@H](C)C[C@H](OC)[C@H](O)[C@@H](C)/C=C(\\C)[C@@H]1OC(N)=O)C2=O (stereo partly drawn)"
  TARGET: "U-87"
  UNIT TAG: "µM"
  IC50: 8.58
- COMPOUND: "CO[C@H]1/C=C\\C=C(/C)C(=O)NC2=CC(=O)C(NC3CN4CCC3CC4)=C(C[C@@H](C)C[C@H](OC)[C@H](O)[C@@H](C)/C=C(\\C)[C@@H]1OC(N)=O)C2=O (stereo partly drawn)"
  TARGET: "U-87"
  UNIT TAG: "µM"
  IC50: 1.08
- COMPOUND: "C=CC[N+]12CCC(CC1)C(NC1=C3C[C@@H](C)C[C@H](OC)[C@H](O)[C@@H](C)/C=C(\\C)[C@H](OC(N)=O)[C@@H](OC)/C=C\\C=C(/C)C(=O)NC(=CC1=O)C3=O)C2 (stereo partly drawn)"
  TARGET: "U-87"
  UNIT TAG: "µM"
  IC50: 3.69
